Target: T1, CD3ε homodimer protein (human, UniProt P07766 23-126, limits assumed, sulfo-tag or biotin label in some ECL assays)
T1 construct: also called human CD3ε homodimer protein; CD3 (CD3ε)
T1 sequence (P07766 23-126 limits assumed): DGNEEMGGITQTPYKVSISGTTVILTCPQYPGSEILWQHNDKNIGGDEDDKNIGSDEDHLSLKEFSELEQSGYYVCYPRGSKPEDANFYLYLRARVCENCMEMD
Test: SPR, CD3ε homodimer on chip;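 further: biacore SPR with antibody variants flowed as analyte over amine-coupled CD3ε homodimer on a CM chip, bound amount of each single-residue H chain variant over that of parent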
// ratio of amounts bound vs CE115HA000 lookup, one value per entry
Enter a number only.

Consider the worked cases shown below.
CE115HA000 W33D (antibody, name in Kabat numbering, V domains shown) VH: QVQLVESGGGVVQPGRSLRLSCAASGFTFSNADMHWVRQAPGKGLEWVAQIKAKSNNYATYYAESVKGRFTISRDDSKNSLYLQMNSLKTEDTAVYYCRYVHYGAYYGVDAWGQGTTVTVSS VL: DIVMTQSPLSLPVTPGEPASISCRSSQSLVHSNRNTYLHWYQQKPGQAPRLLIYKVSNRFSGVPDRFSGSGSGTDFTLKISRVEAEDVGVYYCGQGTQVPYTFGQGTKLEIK | 0.1
CE115HA000 N31K (antibody, name in Kabat numbering, V domains shown) VH: QVQLVESGGGVVQPGRSLRLSCAASGFTFSKAWMHWVRQAPGKGLEWVAQIKAKSNNYATYYAESVKGRFTISRDDSKNSLYLQMNSLKTEDTAVYYCRYVHYGAYYGVDAWGQGTTVTVSS VL: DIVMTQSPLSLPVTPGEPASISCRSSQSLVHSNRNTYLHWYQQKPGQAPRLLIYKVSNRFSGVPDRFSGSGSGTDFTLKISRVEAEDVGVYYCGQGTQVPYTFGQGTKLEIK | 1.01

Moving on to the next binder.
Reported ratio of amounts bound vs CE115HA000 ( CE115HA000 A99F (antibody, name in Kabat numbering, V domains shown) VH: QVQLVESGGGVVQPGRSLRLSCAASGFTFSNAWMHWVRQAPGKGLEWVAQIKAKSNNYATYYAESVKGRFTISRDDSKNSLYLQMNSLKTEDTAVYYCRYVHYGFYYGVDAWGQGTTVTVSS VL: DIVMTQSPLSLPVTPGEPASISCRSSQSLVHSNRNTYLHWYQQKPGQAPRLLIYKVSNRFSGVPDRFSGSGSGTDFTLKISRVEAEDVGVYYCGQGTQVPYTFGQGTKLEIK ) = 1.43

Provenance of the data: patent US20220040297A1
